# experimental protocol: Egg-PAMPA permeability assay
# Assay type: in vitro ADME
# condition set: incubation 4 h, read-out: Mean Pe
outcome measure: Papp at 4 h, 10 μM (×10⁻⁶ cm/s)
Your answer should be a plain number; it is taken to be in ×10⁻⁶ cm/s.

Cc1cc(=O)n(-c2ccc(F)cc2)nc1C(=O)Nc1ccc(Oc2ccnc(NC(=O)N3CC(O)C3)c2)c(F)c1 has a reported Papp at 4 h, 10 μM of 0.34

---

# experimental protocol: Liver microsomal stability assay
# Format: in vitro ADME, SD rat
# condition set: Sprague-Dawley, rat, liver microsomes; RLM; read-out: CL int
outcome measure: microsomal CLint

microsomal CLint for Cc1cc(=O)n(-c2ccc(F)cc2)nc1C(=O)Nc1ccc(Oc2ccnc(NC(=O)N3CC(O)C3)c2)c(F)c1 [LAH-1] is < 8.6 µL/min/mg

---

# Test system: U87MG cells
# experimental protocol: Cell proliferation assay (CCK-8)
# Type: cell-based
# condition set: Homo sapiens, U-87 MG, 72 h
outcome measure: pIC50
Here pIC50 is given on a logarithmic scale as minus log10 of the concentration in mol/L.

For record Cc1cc(=O)n(-c2ccc(F)cc2)nc1C(=O)Nc1ccc(Oc2ccnc(NC(=O)N3CC(O)C3)c2)c(F)c1 the listed pIC50 is 4.81

---

# experimental protocol: Liver microsomal stability assay
# Type: in vitro ADME, human
# condition set: human, liver microsomes; HLM
outcome measure: half-life

The molecule listed as Cc1cc(=O)n(-c2ccc(F)cc2)nc1C(=O)Nc1ccc(Oc2ccnc(NC(=O)N3CC(O)C3)c2)c(F)c1 has a reported half-life of > 2.08 h

---

# experimental protocol: In vivo pharmacokinetics
# Parameters: species or system SD rats
# condition set: Sprague-Dawley, rat, plasma; iv, 5 mg/kg, male SD rats
# Procedure: Having characterised LAH-1 as a potent c-Met inhibitor, the ADME properties and PK parameters were further determined. […] PK parameters of LAH-1 was determined in SD rats (male, n = 3 per group) weighing (200–240 g), which were obtained from SpePharm (Beijing) Biotechnology Co., Ltd. Briefly, rats were fasted overnight before dosing, LAH-1 was given as a solution in 10% DMSO with 90% Saline for intravenously (5 mg/kg) and 0.1% PEG400 in 0.5% CMC-Na in water for PO (20 mg/kg). […]
outcome measure: AUC(0-inf)

Quick note, AUC(0-inf) for Cc1cc(=O)n(-c2ccc(F)cc2)nc1C(=O)Nc1ccc(Oc2ccnc(NC(=O)N3CC(O)C3)c2)c(F)c1 landed at 16800 ng·h/mL

---

# experimental protocol: In vivo pharmacokinetics
# Set-up: species or system SD rats
# condition set: Sprague-Dawley, rat, plasma; po 20 mg/kg vs iv 5 mg/kg, male SD rats; read-out: F% (oral bioavailability)
outcome measure: bioavailability (%)
Write the value in % as a bare number.

Cc1cc(=O)n(-c2ccc(F)cc2)nc1C(=O)Nc1ccc(Oc2ccnc(NC(=O)N3CC(O)C3)c2)c(F)c1 yielded bioavailability of 12.2

---

# system name: c-Met (Homo sapiens)
# Sequence (P08581 956-1390 limits assumed): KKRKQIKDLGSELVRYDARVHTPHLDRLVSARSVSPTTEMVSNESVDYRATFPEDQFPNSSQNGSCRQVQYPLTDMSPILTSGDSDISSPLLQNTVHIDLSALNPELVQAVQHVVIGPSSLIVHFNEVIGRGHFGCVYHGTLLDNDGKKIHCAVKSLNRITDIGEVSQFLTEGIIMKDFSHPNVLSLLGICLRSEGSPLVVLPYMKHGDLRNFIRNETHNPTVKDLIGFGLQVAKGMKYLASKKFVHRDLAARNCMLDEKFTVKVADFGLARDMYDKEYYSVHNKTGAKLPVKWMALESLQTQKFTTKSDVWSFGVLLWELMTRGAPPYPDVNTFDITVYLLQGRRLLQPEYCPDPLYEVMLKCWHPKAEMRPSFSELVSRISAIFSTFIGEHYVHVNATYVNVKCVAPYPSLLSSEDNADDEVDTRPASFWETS
outcome measure: pIC50
Reminder that pIC50 is minus the log10 of a molar concentration.

For Cc1cc(=O)n(-c2ccc(F)cc2)nc1C(=O)Nc1ccc(Oc2ccnc(NC(=O)N3CC(O)C3)c2)c(F)c1 on c-Met (Homo sapiens), measured pIC50 was 7.31

---

# system name: CYP2D6 (Homo sapiens)
# Sequence (P10635 whole entry): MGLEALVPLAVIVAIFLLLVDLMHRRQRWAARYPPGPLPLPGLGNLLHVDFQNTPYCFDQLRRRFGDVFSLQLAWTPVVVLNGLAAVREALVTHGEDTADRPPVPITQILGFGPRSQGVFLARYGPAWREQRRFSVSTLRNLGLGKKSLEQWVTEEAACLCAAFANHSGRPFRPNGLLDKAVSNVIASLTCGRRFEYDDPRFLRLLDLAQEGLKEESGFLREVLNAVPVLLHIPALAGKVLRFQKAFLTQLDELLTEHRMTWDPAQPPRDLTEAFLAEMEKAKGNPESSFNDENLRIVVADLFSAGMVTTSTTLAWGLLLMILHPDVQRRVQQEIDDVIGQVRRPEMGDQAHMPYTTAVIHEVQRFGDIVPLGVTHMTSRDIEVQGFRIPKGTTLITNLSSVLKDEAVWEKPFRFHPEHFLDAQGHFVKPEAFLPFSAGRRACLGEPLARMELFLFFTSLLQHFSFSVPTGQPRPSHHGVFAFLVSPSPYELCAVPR
# experimental protocol: CYP450 inhibition assay
# Assay type: in vitro ADME
outcome measure: inhibition at 10 µM (%)
Report the figure in % without appending any unit label.

// Cc1cc(=O)n(-c2ccc(F)cc2)nc1C(=O)Nc1ccc(Oc2ccnc(NC(=O)N3CC(O)C3)c2)c(F)c1 : inhibition at 10 µM value = 21.5

---

# Test system: SBC-5 cells
# experimental protocol: Cell proliferation assay (CCK-8)
# Format: cell-based
# condition set: Homo sapiens, 72 h
outcome measure: IC50 (µM)
Supply the numeric figure in µM, leaving out any unit text.

Entry under test: Cc1cc(=O)n(-c2ccc(F)cc2)nc1C(=O)Nc1ccc(Oc2ccnc(NC(=O)N3CC(O)C3)c2)c(F)c1 . Its IC50 was 16.1

---

# experimental protocol: In vivo pharmacokinetics
# Parameters: species or system SD rats
# condition set: Sprague-Dawley, rat, plasma; iv, 5 mg/kg, male SD rats
outcome measure: Cmax (µg/mL)
Supply the numeric figure in µg/mL, leaving out any unit text.

Record Cc1cc(=O)n(-c2ccc(F)cc2)nc1C(=O)Nc1ccc(Oc2ccnc(NC(=O)N3CC(O)C3)c2)c(F)c1 . Reported Cmax: 14.9

---

# system name: CYP2C19 (Homo sapiens, UniProt P33261)
# Sequence (P33261 whole entry): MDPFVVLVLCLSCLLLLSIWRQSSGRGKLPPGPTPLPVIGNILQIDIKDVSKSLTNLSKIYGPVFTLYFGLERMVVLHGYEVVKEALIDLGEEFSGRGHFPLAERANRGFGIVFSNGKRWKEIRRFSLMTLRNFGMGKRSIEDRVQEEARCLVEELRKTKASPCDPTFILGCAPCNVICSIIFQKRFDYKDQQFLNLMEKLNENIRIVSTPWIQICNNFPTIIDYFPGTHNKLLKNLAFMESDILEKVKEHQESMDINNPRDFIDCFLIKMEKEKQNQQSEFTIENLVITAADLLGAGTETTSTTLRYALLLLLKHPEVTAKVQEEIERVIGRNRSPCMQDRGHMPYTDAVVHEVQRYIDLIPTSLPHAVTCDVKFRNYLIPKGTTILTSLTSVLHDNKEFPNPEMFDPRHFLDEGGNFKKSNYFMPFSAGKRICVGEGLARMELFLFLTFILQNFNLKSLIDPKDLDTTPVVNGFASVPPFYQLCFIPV
# experimental protocol: CYP450 inhibition assay
# Type: in vitro ADME
outcome measure: inhibition at 10 µM (%)
Write the number in % without appending the unit.

// sample Cc1cc(=O)n(-c2ccc(F)cc2)nc1C(=O)Nc1ccc(Oc2ccnc(NC(=O)N3CC(O)C3)c2)c(F)c1 [LAH-1] , its inhibition at 10 µM was 15.6

---

# experimental protocol: Liver microsomal stability assay
# Format: in vitro ADME, SD rat
# condition set: Sprague-Dawley, rat, liver microsomes; RLM
outcome measure: half-life

Reported half-life for Cc1cc(=O)n(-c2ccc(F)cc2)nc1C(=O)Nc1ccc(Oc2ccnc(NC(=O)N3CC(O)C3)c2)c(F)c1 was > 2.08 h

---

# system name: CYP2C9 (Homo sapiens, UniProt P11712)
# Sequence (P11712 whole entry): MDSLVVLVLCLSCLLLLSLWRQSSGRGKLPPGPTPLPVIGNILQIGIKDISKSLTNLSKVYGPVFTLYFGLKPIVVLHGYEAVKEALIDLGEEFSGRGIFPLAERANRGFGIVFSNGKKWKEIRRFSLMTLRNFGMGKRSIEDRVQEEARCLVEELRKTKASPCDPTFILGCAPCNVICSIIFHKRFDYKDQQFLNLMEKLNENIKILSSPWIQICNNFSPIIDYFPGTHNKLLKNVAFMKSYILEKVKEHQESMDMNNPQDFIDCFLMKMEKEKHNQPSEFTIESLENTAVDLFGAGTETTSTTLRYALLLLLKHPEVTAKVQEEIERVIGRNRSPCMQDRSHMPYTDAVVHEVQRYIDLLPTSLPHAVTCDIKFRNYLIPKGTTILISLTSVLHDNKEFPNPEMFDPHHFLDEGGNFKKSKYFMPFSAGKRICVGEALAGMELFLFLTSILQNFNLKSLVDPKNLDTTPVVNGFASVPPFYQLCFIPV
# experimental protocol: CYP450 inhibition assay
# Assay type: in vitro ADME
outcome measure: inhibition at 10 µM (%)
The response must be a number in % with no trailing unit.

What the record says about Cc1cc(=O)n(-c2ccc(F)cc2)nc1C(=O)Nc1ccc(Oc2ccnc(NC(=O)N3CC(O)C3)c2)c(F)c1 : inhibition at 10 µM is 50.7
